src = patent US10934303B2

- Test Description: in vitro
- Format: in vitro ADME
- Experimental Setup: PBS pH 7.4, 25° C., 5 hours
We begin with a simple list: items and their reported Permeability Pampa.

These solved cases illustrate the format of a correct answer.
compound="CC(C)N1CCN(c2ccc(/C(=C(/CCCO)c3ccccc3)c3cccc(O)c3)cc2)CC1 [Compound 18k]" measured_property="Permeability Pampa" value_observed="1.29 10^−6 cm/s"
compound="CC(=O)Nc1ccc(/C(=C(\\CCCOC(C)=O)c2ccccc2)c2ccc(C3CCN(C4CC4)CC3)cc2)cc1 [Compound 27d]" measured_property="Permeability Pampa" value_observed="0.34 10^−6 cm/s"

// next entry
Incoming: Suppose we examine the compound OCCC/C(=C(\c1ccc(Br)cc1)c1ccc(C2CNC2)cc1)c1ccccc1 [Compound 20f] ; what Permeability Pampa value has been reported?
Outgoing: 0.14 10^−6 cm/s

* * *

- Test Description: in vivo
- Assay type: in vivo
- Experimental Setup: in vivo; rat, IV, 1 mg/kg; read-out: Vss
Measured Property: Vd (L/kg)
All answers are understood in L/kg, so give the number only.

Incoming: Suppose we examine the compound CN(C)CCOc1ccc(/C(=C(/CCCO)c2ccccc2)c2ccc(O)cc2)cc1 [GSK5182, reference compound] ; what Vd value has been reported?
Outgoing: 9.1

* * *

- Target Entity: GST-bound ERR gamma ligand-binding domain (LBD) (Homo sapiens (Human), UniProt P62508)
- Sequence (P62508 233-457): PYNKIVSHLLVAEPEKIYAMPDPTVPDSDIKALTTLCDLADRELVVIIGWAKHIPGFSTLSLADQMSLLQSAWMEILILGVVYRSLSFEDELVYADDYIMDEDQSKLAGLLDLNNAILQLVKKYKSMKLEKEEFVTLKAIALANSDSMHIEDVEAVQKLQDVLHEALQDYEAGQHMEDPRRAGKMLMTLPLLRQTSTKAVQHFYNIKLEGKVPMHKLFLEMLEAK
- Test Description: ERRγ binding assay (inverse agonist assay), TR-FRET
- Experimental Setup: TR-FRET, PGC1a coactivator; read-out: Binding Assay, IC50 ERRγ
Measured Property: pIC50
# log scale: pIC50 equals minus log10 of the concentration in mol/L

These solved cases illustrate the format of a correct answer.
compound=CN1CCC[C@H]1CCOc1ccc(/C(=C(/CCCO)c2ccccc2)c2ccc(O)cc2)cc1 measured_property=pIC50 value_observed=7.47
compound="OCCC/C(=C(\\c1ccc(O)cc1)c1ccc(N2CCN(C3CCC3)CC2)cc1)c1ccccc1 [Compound 22q]" measured_property=pIC50 value_observed=7.28
compound="CCN1CCN(c2ccc(/C(=C(/CCCO)c3ccccc3)c3ccc(C)cc3)cc2)CC1 [Compound 18j]" measured_property=pIC50 value_observed=7.60

// next entry
Incoming: Suppose we examine the compound OCCC/C(=C(\c1ccc(O)cc1)c1ccc(OCCN2CCC[C@@H]2CO)cc1)c1ccccc1 [Compound 38c] ; what pIC50 value has been reported?
Outgoing: 7.04

* * *

- Test Description: in vitro
- Assay type: in vitro ADME
- Experimental Setup: PBS pH 7.4, 25° C., 5 hours
We begin with a simple list: items and their reported Permeability Pampa.

molecule="Cc1ccc(/C(=C(\\CCCO)c2ccccc2)c2ccc(N3CCNCC3)cc2)cc1 [Compound 20b]" value_observed="3.61 10^−6 cm/s"
molecule="Cc1ccc(/C(=C(\\CCCO)c2ccccc2)c2ccc(C3CCN(C)CC3)cc2)cc1 [Compound 22f]" value_observed="3.96 10^−6 cm/s"

Incoming: Suppose we examine the molecule CN1CCN(c2ccc(/C(=C(/CCCO)c3ccccc3)c3ccc(O)cc3)cc2)CC1 [Compound 18d] ; what Permeability Pampa value has been reported?
Outgoing: 0.14 10^−6 cm/s

Incoming: And OCCC/C(=C(\c1ccc(O)cc1)c1ccc(N2CCN(C3CCC3)CC2)cc1)c1ccccc1 [Compound 22q] ?
Outgoing: 0.77 10^−6 cm/s
